The reported measurements were obtained from ChEMBL document CHEMBL1201862.

- System: RPMI-8226
- PROTOCOL_TEXT: NCI tumour cell line growth inhibition, 48 h
The source made the active and inactive calls. Rule as the data show it: active = GI50 up to about 1.1 µM and inactive = higher.

- COMPOUND: "Cc1nc(-c2cccnc2)sc1C(=O)CC(=O)C(=O)Nc1cccc(NC(=O)C(=O)CC(=O)c2sc(-c3cccnc3)nc2C)n1"
  GI50: "> 100 µM (inactive)"
- COMPOUND: "CC(=O)NC(CCCCN)C(=O)NCc1ccccc1 (stereo not given)"
  GI50: "> 100 µM (inactive)"
- COMPOUND: "COc1ccc(/N=N/C(=O)NC(CC(C)C)C(=O)NC(Cc2ccccc2)C(=O)O)cc1 (stereo not given)"
  GI50: "2.28 µM (inactive)"
- COMPOUND: "CC(=O)c1sc2c(c1O)c(=O)n(-c1ccccc1)c(=S)n2-c1ccccc1"
  GI50: "> 100 µM (inactive)"
- COMPOUND: "O=C(N/N=C/c1ccc2c(c1)CCC2)c1ccccc1O"
  GI50: "32.5 µM (inactive)"
- COMPOUND: "CCOC(=O)/C(=C\\c1ccc(C#N)cc1)C(C)=O"
  GI50: "22 µM (inactive)"
- COMPOUND: "CC#CC(=O)SCCNC(=O)CC"
  GI50: "> 5.15 µM (inactive)"
- COMPOUND: "CCOC(=O)CNC1C(NC(C)=O)C(OC)OC2COC(c3ccccc3)OC21 (stereo not given)"
  GI50: "> 100 µM (inactive)"
- COMPOUND: "COc1ccc(C=O)c([N+](=O)[O-])c1"
  GI50: "23.1 µM (inactive)"
- COMPOUND: "Nc1nc(N)c2ncn(CCCC(c3ccccc3)P(=O)(O)O)c2n1 (stereo not given)"
  GI50: "> 100 µM (inactive)"
- COMPOUND: "c1ccc(-c2cc(-c3cccs3)c(-c3cccs3)o2)cc1"
  GI50: "> 100 µM (inactive)"
- COMPOUND: "CCOC(=O)CSc1nc2ccccc2c(=O)n1N"
  GI50: "> 100 µM (inactive)"
- COMPOUND: "CCOC(=O)Nc1ccc(C)c(NC(=O)OCC)c1"
  GI50: "> 100 µM (inactive)"
- COMPOUND: "COc1cccc([C@@H]2CC(=O)c3cc4c(cc3N2)OCO4)c1"
  GI50: "76.4 µM (inactive)"
- COMPOUND: "CC1=C(c2cc(C(=O)Nc3cc(C)ccc3C)nc(N)n2)Sc2ccccc2N1"
  GI50: "> 100 µM (inactive)"
- COMPOUND: "CC[C@@H]1CSC(/C=C/C2OC3OC(C)(C)OC3C3OC(C)(C)OC23)=N1 (stereo not given in full)"
  GI50: "5.78 µM (inactive)"
- COMPOUND: "CC1(C)COC(/C=C/C2=NC(C)(C)CO2)=N1"
  GI50: "10 µM (inactive)"
- COMPOUND: "CCCCCCCCCC/C=C/CC(=O)SCCNC(=O)CCNC(=O)[C@@H](O)C(C)(C)COP(=O)(O)OP(=O)(O)OCC1OC(n2cnc3c(N)ncnc32)C(O)C1OP(=O)(O)O (stereo not given in full)"
  GI50: "> 10 µM (inactive)"
- COMPOUND: "O=c1[nH]cc(OCC(F)(F)F)c(=O)[nH]1"
  GI50: "> 100 µM (inactive)"
- COMPOUND: "C/C(=N\\NC(=O)C[n+]1ccccc1)c1sc(-c2nc(C)c(/C(C)=N/NC(=O)C[n+]3ccccc3)s2)nc1C"
  GI50: "43.9 µM (inactive)"
